system: NCI/ADR-RES ovarian; experiment: NCI tumour cell line growth inhibition, 48 h
TGI: recorded values

{"Compound": "N#C/C(=C\\N1CCNC1=S)C(=O)c1ccc2ccccc2c1", "TGI": "> 100 µM"}
{"Compound": "O=C(CCNC(=O)OCc1ccccc1)OCCCNC(=O)OCc1ccccc1", "TGI": "> 100 µM"}
{"Compound": "C1CSCCSS[C@@H]2CCCCC2SC1 (stereo partly specified)", "TGI": "> 100 µM"}
{"Compound": "COc1cc2c3c(n(CCCn4cccn4)c(=O)c2cc1OC)-c1cc2c(cc1C3=O)OCO2", "TGI": "16.5 µM"}
{"Compound": "c1ccc(CN2CCC3(CC2)ONC2=NCCN23)cc1", "TGI": "> 100 µM"}
{"Compound": "CNC(=O)OC(C)CN1c2ccccc2Sc2ccccc21 (stereo unspecified)", "TGI": "> 100 µM"}
{"Compound": "S=c1scc(-c2ccc(Cl)cc2)n1OC1CCCC1", "TGI": "> 100 µM"}
{"Compound": "CCCCCCCCCCCCCCCCCCNc1ccn(C2OC(COP(=O)(O)OCCCCCCCCCCCCCCCC)C(O)C2O)c(=O)n1 (stereo unspecified)", "TGI": "> 100 µM"}
{"Compound": "C/C(=N/NC(=S)Nc1cccc(Cl)c1)c1cccc(/C(C)=N\\NC(=S)Nc2cccc(Cl)c2)n1", "TGI": "> 100 µM"}
{"Compound": "CCOc1ccc2c(-c3ccnc(Nc4cccc(C(F)(F)F)c4)n3)cnn2n1", "TGI": "> 25 µM"}
{"Compound": "O=C(c1cccs1)N(C(=S)OCc1ccccn1)c1ccccc1", "TGI": "> 100 µM"}
